Test system: Wnt5a (protein binding on small-molecule microarray)
Assay: Wnt5a binders on small-molecule microarray, primary screen, biophysical, 635/667 nm fluorescence (AID 1142);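 further: fluorescence read at 667 nm with signal to noise per printed feature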
Conditions: 635 nm fluorescence, higher = more signal
Please map values of composite z-score to classes as shown: low range (below -0.06), mid range (-0.06 to below 0.3), high range (0.3 or more)

>  <compound>
COCCCN1C(=O)[C@@]2(Cc3ccccc31)c1ccccc1C(=O)N(Cc1ccccc1C(F)(F)F)[C@H]2c1ccc(CO)cc1

>  <label>
mid range

$$$$
>  <compound>
CCCC#C[Si](O[C@H](CC)c1cn([C@H](CO)Cc2ccccc2)nn1)(C(C)C)C(C)C

>  <label>
high range

$$$$
>  <compound>
[N-]=[N+]=NCc1ccccc1C[C@]1(C(=O)O)N=C(c2ccc(OCCCO)cc2)O[C@H]1c1ccccc1N=[N+]=[N-]

>  <label>
high range

$$$$

Q: Into which bin does this compound go? N#Cc1ccc(NN2C(C(O)c3c(F)cccc3Cl)C=CC3C(=O)N(c4ccccc4)C(=O)C32)cc1 (stereo not given)
Result: high range

Q: Exam item: assign `CC(C)(C)C(=O)N[C@@H](c1ccc(Cl)cc1)[C@]1(C)C[C@H]1C1CCCCC1` to the correct category.
Result: mid range

Q: Which of the defined bands does the recorded composite z-score of `COCCOC(=O)N1C(=O)[C@@]2(c3cc(C#CCCO)ccc31)[C@H](C(=O)N1CCN(c3ncccn3)CC1)[C@H]1C(=O)O[C@H](c3ccccc3)[C@H](c3ccccc3)N1[C@@H]2c1ccccc1OCCO` sit within?
Result: mid range

Q: Tag the class for O=C1C2C=CC(C(O)c3ccc(F)cc3)N(Nc3ccccc3F)C2C(=O)N1c1ccccc1 (stereo not given)
Result: low range

Q: For this compound, which bin applies? `CCCCc1cn(C[C@H](Cc2ccccc2)NC(=O)N[C@H](CO)CCc2oc(C(C)=O)c(C(=O)OC)c2C(=O)OC)nn1`
Result: mid range

Q: Hi, small favor: classify `COc1ccc([C@H]2C[C@H]3C(Br)=C[C@@H]2C(=O)[C@]32CO2)cc1` by its composite z-score when you get a moment.
Result: mid range

Q: Form field 'band' for O=C1OCC=C[C@H]2OC34C=CCN(c5ccc6ccccc6c5)C(=O)[C@H]3N(CCCCCCO)C(=O)[C@@H]4[C@@H]12 (stereo not given in full)
Result: low range

Q: // bin(item) where item = [N-]=[N+]=NCc1ccccc1C[C@]1(C(=O)NCC(O)CO)N=C(c2ccc(OCCCO)cc2)O[C@H]1c1ccccc1 (stereo not given in full)
Result: mid range

Q: Quick check: band for CC(CO)N1C(=O)[C@@H]2C3C(=O)OCCC/C=C\[C@H]3OC23C=CCN(c2ccc4ccccc4c2)C(=O)[C@@H]13 (stereo not given in full)
Result: low range

Q: // bin(item) where item = `O=C1O[C@H](c2ccccc2)[C@H](c2ccccc2)N2[C@H]1[C@@H](C(=O)Nc1nc3ccccc3s1)[C@]1(C(=O)Nc3ccc(C#CC4(O)CCCCCC4)cc31)[C@H]2c1ccc(OCCO)cc1`
Result: mid range

Q: Hello team, could you let me know which band the following compound falls into: `C#CCNC(=O)[C@H](Cc1ccccc1)NC(=O)CCC(=O)O`
Result: low range

Q: Bin this entry: `C=CC[C@]12N=C(c3ccc(OCCCO)cc3)O[C@H]1c1ccccc1N(Cc1ccccc1)C2=O`
Result: high range

* * *

Test: small-molecule binders of probe aNOTCH2, primary screen, biochemical, small-molecule microarray, 635/667 nm fluorescence (AID 1121);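 further: score merges feature fluorescence read at 667 nm with its signal to noise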
Details: higher = more signal
quantity-kind: composite z-score
Write no unit; give the number alone.

These solved cases illustrate the format of a correct answer.
>  <compound>
O=C1OCC=C[C@H]2OC34C=CCN(c5ccc6ccccc6c5)C(=O)[C@H]3N(CCCCCCO)C(=O)[C@@H]4[C@@H]12 (some centres undefined)

>  <observed-measurement>
-0.0472

$$$$
>  <compound>
C=CCC(OC(C)=O)[C@@H]1[C@@H](N(Cc2ccc(-c3cccc(C(F)(F)F)c3)o2)C(=O)c2ccc(-c3ccccc3)cc2)c2cc(OCCCO)ccc2N1C(=O)c1ccc(-c2ccccc2)cc1 (some centres undefined)

>  <observed-measurement>
-0.126

$$$$
>  <compound>
CC(C)(C)OC(=O)CC[C@@]1(C(=O)NCC(O)CO)N=C(c2ccc(OCCCO)cc2)O[C@@H]1c1ccccc1N=[N+]=[N-] (some centres undefined)

>  <observed-measurement>
0.0083

$$$$

Now consider a different compound.
Reported composite z-score for `COCC(=C=CC[C@H](O)c1ccccc1OCCO)C[C@H](O)c1cc(Cl)cc(Cl)c1O` was -0.115

* * *

Entries and their composite z-score values follow.
Assay: small-molecule microarray binders of probe aNog, primary screen, biochemical, biotinylated probe, 635/667 nm fluorescence (AID 1115);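 further: probe is biotinylated aNog protein used at 0.15 µg/mL for 1 h at 4 C; z-score combines 667 nm fluorescence of each spot with its signal to noise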
Conditions: higher = more signal
Lab note: jot down the number only; don't add units.

>  <compound>
CC(C)(C)C(=O)N[C@@H](c1ccc(Cl)cc1)[C@]1(C)C[C@H]1C1CCCCC1

>  <composite z-score>
2.13

$$$$
>  <compound>
CCOC(=O)C[C@H]1[C@H](OC(=O)c2ccc(C(=O)c3ccccc3)cc2)[C@@H](NC(=O)c2ccc(-c3ccccc3)cc2)c2cc(OCCCO)ccc2N1C(=O)c1ccccc1

>  <composite z-score>
-0.632

$$$$
>  <compound>
CCCCCN1CC=CC23O[C@@H]4/C=C\CCCOC(=O)C4[C@H]2C(=O)N(CCCO)[C@@H]3C1=O (stereo partly drawn)

>  <composite z-score>
-0.244

$$$$
>  <compound>
COC(=O)[C@@]1(Cc2ccccc2)[C@H]2c3cc(C(=O)N4CCCC4)n(CC4CC4)c3C[C@H]2CN1C(=O)c1ccccc1

>  <composite z-score>
2.57

$$$$
>  <compound>
Cc1ccc(S[C@]2(C(=O)NCCN3CCOCC3)CC(=O)N(Cc3ccccc3)[C@@H]2c2ccc(CO)cc2I)cc1

>  <composite z-score>
0.0323

$$$$
>  <compound>
CCCCC=C[C@@H](NC(=O)Oc1cccc(C(F)(F)F)c1)c1ccccc1

>  <composite z-score>
0.59

$$$$
>  <compound>
O=C1c2ccccc2[C@@]2(Cc3ccccc3N(CC(F)(F)F)C2=O)[C@H](c2ccc(CO)cc2)N1Cc1ccccc1Cl

>  <composite z-score>
-0.282

$$$$

Shifting focus to the compound that follows.
Briefly, composite z-score measured for `CC(C)C[C@@H]1NC(=O)[C@H]2C[C@@H](C(=O)NCCCCCCN)[C@@H](c3ccc(O)cc3)N2C1=O` : 0.103

* * *

Target: Torsin-1A (Homo sapiens) (UniProt O14656)
Sequence (O14656 whole entry, looked up): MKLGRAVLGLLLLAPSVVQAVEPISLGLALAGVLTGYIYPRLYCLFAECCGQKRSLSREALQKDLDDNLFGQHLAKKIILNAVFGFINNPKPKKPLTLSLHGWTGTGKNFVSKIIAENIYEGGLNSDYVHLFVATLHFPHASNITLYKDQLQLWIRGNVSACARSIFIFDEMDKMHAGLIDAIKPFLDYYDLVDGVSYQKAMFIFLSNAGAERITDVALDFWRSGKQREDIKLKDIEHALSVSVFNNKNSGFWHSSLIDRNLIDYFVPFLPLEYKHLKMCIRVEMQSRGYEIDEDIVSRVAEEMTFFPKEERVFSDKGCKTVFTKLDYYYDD
Assay: torsin A binders from cell lysate, primary screen, small-molecule microarray, wild-type, 635/667 nm (AID 1149)
Settings: COS7 hTOR1A-WT lysate, 635 nm fluorescence, higher = more signal
Quick reference for composite z-score among some compounds

>  <compound>
O=C(C1N=C(c2ccc(OCCCO)cc2)N(c2ccccc2)O1)N1CCOCC1 (centres undefined)

>  <composite z-score>
0.652

$$$$
>  <compound>
COc1cc2c(cc1OC)CN(C(=O)[C@@H]1[C@H]3C(=O)O[C@H](c4ccccc4)[C@H](c4ccccc4)N3[C@H](c3ccc(O)cc3)[C@@]13C(=O)Nc1ccc(C#CC4(O)CCCCCC4)cc13)CC2

>  <composite z-score>
0.287

$$$$
>  <compound>
O=C1OCCC/C=C\[C@H]2OC34C=CCN(CCN5CCOCC5)C(=O)[C@H]3N(CCCO)C(=O)[C@@H]4C12 (some centres undefined)

>  <composite z-score>
-0.222

$$$$

Field composite z-score (entry CN1C(=O)C2C=CC(C(O)C3CCCCC3)N(Nc3ccc([N+](=O)[O-])cc3[N+](=O)[O-])C2C1=O (centres undefined) ) reads 1.27

Kindly note the recorded composite z-score for `CN(C)C(=O)[C@]1(Cc2ccccc2N=[N+]=[N-])N=C(c2ccc(OCCCO)cc2)O[C@@H]1c1ccccc1` , which is -0.09

Reported composite z-score for COCCCNC(=O)C1N=C(c2ccc(OCCCO)cc2)N(c2ccccc2)O1 (centres undefined) was 0.777

# composite z-score of [N-]=[N+]=NCc1ccccc1C[C@@]1(C(=O)NCC(O)CO)N=C(c2ccc(OCCCO)cc2)O[C@@H]1c1ccccc1N=[N+]=[N-] (some centres undefined) = 0.73

Entry O=C1NC(=O)C2C1C=CC(C(O)c1cccc3ccccc13)N2Nc1ccccn1 (centres undefined) ; composite z-score = 0.16

Memo: `O=C1c2ccccc2[C@](Cc2ccccc2I)(C(=O)NC2CC2)[C@H](c2ccc(CO)cc2)N1Cc1ccccc1` , reported composite z-score: 0.189

The compound listed as `[N-]=[N+]=NCc1ccccc1[C@@H]1OC(c2ccc(OCCCO)cc2)=N[C@]1(CCS(=O)(=O)c1ccccc1)C(=O)NCCN1CCOCC1` has a reported composite z-score of 2.1

composite z-score reported for this compound CN1C(=O)C2C=CC(C(O)c3cc(C(F)(F)F)cc(C(F)(F)F)c3)N(N3CCCCC3)C2C1=O (centres undefined) : -0.083

According to the records, this compound COC(=O)C=C(CC(O)c1cccc(Cl)c1)OC (centres undefined) displays composite z-score of 0.208

Data point: CN1C(=O)C2C=CC(C(O)c3ccccc3)N(Nc3ccccc3)C2C1=O (centres undefined) ; composite z-score = -1.5

Short answer for `COC(=O)[C@@]1(Cc2ccc(OC)cc2)[C@H]2c3cc(C(=O)N4CCCC4)n(Cc4ccccc4)c3C[C@H]2CN1C(=O)c1ccccc1` : composite z-score was -0.0218

Input `O=C1c2ccccc2[C@@]2(Cc3ccccc3N(CCN3CCOCC3)C2=O)[C@H](c2ccc(CO)cc2)N1Cc1ccccc1` . Output composite z-score: 0.437

// field: composite z-score; key: `COC(=O)[C@@]1(Cc2ccc(F)cc2)[C@H]2c3cc(C(=O)N(C)C)n(Cc4ccc(S(C)(=O)=O)cc4)c3C[C@H]2CN1C(=O)c1ccccc1` ; value = 0.33

So, O=C1NC(=O)C2C1C=CC(C(O)C(c1ccccc1)c1ccccc1)N2Nc1ccc(Cl)cc1Cl (centres undefined) ? Its composite z-score was -0.614

According to the records, this compound `COC(=O)[C@@]1(Cc2ccc(OC)cc2)[C@H]2c3cc(C(=O)N(C)C)n(Cc4cccc5ccccc45)c3C[C@H]2CN1C(=O)c1ccccc1` displays composite z-score of 0.817

Consider `O=C(NCC(F)(F)F)[C@@H]1c2ccccc2C(=O)N(C2CCCCC2)[C@H]1c1ccc(CO)cc1` . Its measured composite z-score is 0.252

Measured composite z-score, `CC(C)(C)C(=O)N[C@@H](c1ccc(Cl)cc1)[C@]1(C)C[C@H]1C1CCCCC1` : 0.895
